Measured values drawn from patent US20230272099A1 for this set.

assayed_target: T1, biotinylated Fc-fused monkey CD137 (monkey, biotin on the AviTag)
T1 construct: also called cyCD137-Fc-BAP
T1 sequence (chain, as listed by the source limits assumed): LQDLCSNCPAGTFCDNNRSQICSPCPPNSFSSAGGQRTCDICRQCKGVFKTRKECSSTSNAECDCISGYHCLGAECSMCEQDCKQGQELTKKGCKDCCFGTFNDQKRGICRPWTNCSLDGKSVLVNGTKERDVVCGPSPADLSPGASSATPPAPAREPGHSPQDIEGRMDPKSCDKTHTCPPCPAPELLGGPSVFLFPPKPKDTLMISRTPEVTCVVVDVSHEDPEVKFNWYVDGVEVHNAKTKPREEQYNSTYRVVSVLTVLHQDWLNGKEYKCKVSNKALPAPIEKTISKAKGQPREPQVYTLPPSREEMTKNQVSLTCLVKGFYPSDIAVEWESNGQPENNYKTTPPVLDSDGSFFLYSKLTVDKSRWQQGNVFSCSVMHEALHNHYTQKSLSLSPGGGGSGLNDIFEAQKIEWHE
assay_method_text: ELISA, 1 mM ADP, 0.039 ug/mL
Parameters: reference not given here
This listing pairs binders with measured absorbance ratio.
Just the number, please.

Examples from the recorded data:
- binder: "dBBAT119-P253 (antibody, human IgG1, lambda, V domains shown, also called dBBAT119H-P253/dBBAT119L-LamLib) VH: EVQLVESGGDLVKPGGGLRLSCAASGFTFSTFTMNWVRQAPGKGLEWVSSISSRSNYKSYADSVKGRFTISRDNAKNSLYLQMNSLRAEDTAVYYCARYGAKNFMNWVFDYWGQGTLVTVSS VL: QSALTQPPSASGSPGQTVTISCTGTSTDVGFYNYVSWYQQHPGKAPKLMIYYTSKRPSGVPDRFSGSKSGNTASLTVSGLQAEDEADYFCSSYRYDHQVSFGGGTKLTVLG"
  absorbance ratio: 26.6
- binder: "dBBAT053-P253 (antibody, human IgG1, lambda, V domains shown) VH: EVQLVESGGDLVKPGGGLRLSCAASGFTFSTFTMNWVRQAPGKGLEWVSSISSRSNYIYYADSVKGRFTISRDNAKNSLYLQMNSLRAEDTAVYYCARFGLKNEMNWVFDYWGQGTLVTVSS VL: QSALTQPPSASGSPGQTVTISCTGTSSDVGFYNYVSWYQQHPGKAPKLMIYEGSKKPSGVPDRFSGSKSGNTASLTVSGLQAEDEADYFCSVYSYIYYVLFGGGTKLTVLG"
  absorbance ratio: 0.7

Please look at the following binder next.
Record dBBAT091-P253 (antibody, human IgG1, lambda, V domains shown) VH: EVQLVESGGDLVKPGGGLRLSCAASGFTFSSYTMNWVRQAPGKGLEWVSSISSRSNYIDYADSVKGRFTISRDNAKNSLYLQMNSLRAEDTAVYYCARFGKKNDMNWVFDYWGQGTLVTVSS VL: QSALTQPPSASGSPGQTVTISCTGTSTDVGFYNYVSWYQQHPGKAPKLMIYEGSKRPSGVPDRFSGSKSGNTASLTVSGLQAEDEADYFCSSYEYTESVLFGGGTKLTVLG . Reported absorbance ratio: 0.5
